STUDY SYSTEM: T1, human PILRA, c-term His-Avi tag (human, UniProt Q9UKJ1 20-197, limits assumed)
T1 construct: not shown: C-terminal His-Avi tag
T1 sequence (Q9UKJ1 20-197 limits assumed): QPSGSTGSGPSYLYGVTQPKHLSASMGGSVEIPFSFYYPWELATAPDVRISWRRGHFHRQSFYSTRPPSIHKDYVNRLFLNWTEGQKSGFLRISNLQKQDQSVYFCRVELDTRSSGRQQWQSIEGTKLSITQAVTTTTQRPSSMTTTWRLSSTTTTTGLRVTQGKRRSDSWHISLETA
PROCEDURE DETAILS: SPR (Biacore), antibody captured, PILRA as analyte
Listed binders paired with reported t½
Write it as a number; the unit min goes unstated.

Some solved entries appear below for comparison.
>  <BINDER>
hPA-005 (antibody, V domains shown) VH: QVILKESGPGILQSSQTLSLTCSFSGFSLSTFGMGVGWIRQPSGKGLESLAHIWWDDDKFYNPALKSRLTISKDTSKSQVFLKIANVDTADIATYYCTRIEDYGSYFAYWGQGTTLTVSS VL: DVQMNQSPSSLSASLGDPITITCHASQNIHVWLNWYQQRPGNIPRLLIYKASNLHTGVPSRFSGSGSGTGFTLTISSLQPEDIATYYCQQGQSYPYTFGGGTKLEIK

>  <UNITS LABEL>
min

>  <t½>
7.9

$$$$
>  <BINDER>
D5 (antibody, V domains shown, second hybridoma campaign) VH: EVKLDETGGGLVQPGRPMKLSCVASGFTFSDYWMNWVRQSPEKGLEWVAQIRNKLYNYETYYSDSVKGRFTISRDDSKSSVYLQMNNLRAEDMGIYYCTVGLAMDYWGQGTSVTVSS VL: DIQMTQSSSSFSVSLGDRVTITCKASEDIYNRLAWYQQKPGNAPRLLISGATSLETGVPSRFSGSGSGKEYTLNITSLQTEDVATYYCQQYWSTPTFGGGTKLEIK

>  <UNITS LABEL>
min

>  <t½>
8.5

$$$$

Next item in the queue.
Looking up A14 (antibody, V domains shown, phage campaign) VH: QVQLVQSGAEVKKPGASVKVSCKASGYTFTSYYMYWVRQAPGQGLEWMGWMNPNSGNTGFAQKFQGRVTMTRDTSTSTVYMELSSLRSEDTAVYYCASGYYDSWSGETDYGMDVWGQGTTVTVSS VL: DIQMTQSPSSLSASVGDRVTITCRASQSISSYLNWYQQKPGKAPKLLIYDASTLESGVPSRFSGSGSGTDFTLTISSLQPEDFATYYCQQSYKTPYTFGQGTKLEIK , I see its t½ listed as 9.6
